# System: Caenorhabditis elegans L1 (N2)
# Protocol: survival and reproduction score of C. elegans L1 (0: 0-10 living worms, 1: 11-20, 2: 21-50, 3: >50, 4: overgrown) (score 0-4); higher = more worms, less nematicidal, active = 1 or less; extreme values may be limits of the assay
# Reported conditions: 60 µM; 6 days; temperature: 20 °C
Property measured: survival and reproduction score

# Compound, Reported result
records = [
    ("C(=C\\c1ccccc1)/CSc1nnc(-c2ccncc2)o1", 4),
    ("COc1ccccc1OCc1nc(-c2ccccc2)no1", 4),
    ("Cc1ccc(OCc2nc(-c3ccccc3Cl)no2)cc1C", 2),
    ("Clc1ccc(CSc2nnc(-c3ccc(Cl)cc3)o2)cc1", 4),
    ("CCCOc1ccc(-c2nc(-c3cccnc3)no2)cc1", 0),
    ("CC(C)Oc1cccc(-c2nc(-c3ccccn3)no2)c1", 4),
    ("Brc1ccccc1-c1nc(-c2ccc3c(c2)OCO3)no1", 4),
    ("COc1ccc(-c2nc(-c3ccc(Cl)cc3)no2)cc1", 4),
    ("N#Cc1ccccc1CSc1nnc(-c2ccco2)o1", 4),
    ("Brc1ccc(-c2noc(COc3ccccc3)n2)cc1", 4),
    ("O=C(CSc1nnc(-c2ccc(Cl)cc2)o1)Nc1ccc(F)cc1", 4),
    ("O=C(CSc1nnc(-c2cccc(Br)c2)o1)NC1CCCCC1", 4),
    ("c1ccc(COc2cccc(-c3nc(-c4cccnc4)no3)c2)cc1", 2.5),
    ("COc1ccc(-c2nnc(SCC(=O)N3CC(C)CC(C)C3)o2)cc1 (stereo not drawn)", 4),
    ("CC(C)(C)C(=O)Nc1ccccc1-c1nc(-c2ccncc2)no1", 4),
    ("Cc1cccc(-c2nnc(SCC(=O)NC(C)c3ccccc3)o2)c1 (stereo not drawn)", 4),
    ("COc1ccc(-c2nnc(SCc3ccccc3)o2)cc1", 4),
    ("Cc1ccc(OCc2nc(-c3ccc(Cl)cc3)no2)cc1C", 4),
]

* * *

# System: Caenorhabditis elegans L1 (N2)
# Protocol: survival and reproduction score of C. elegans L1 (0: 0-10 living worms, 1: 11-20, 2: 21-50, 3: >50, 4: overgrown) (score 0-4); higher = more worms, less nematicidal, active = 1 or less; extreme values may be limits of the assay
# Reported conditions: 60 µM; 6 days; temperature: 20 °C
The entries below are paired with their reported survival and reproduction score.

# Compound, survival and reproduction score
data = [
    ("Clc1cc(Br)ccc1OCc1nc(-c2ccccn2)no1", 4),
    ("O=C(Nc1ccc(-c2noc(COc3ccccc3)n2)cc1)c1ccc(F)cc1", 1),
    ("Cc1cccc(OCc2nc(-c3ccccc3Cl)no2)c1", 4),
    ("Cc1cc(OC(C)c2nc(-c3cccnc3)no2)ccc1Cl (stereo not given)", 4),
    ("COc1ccc(CC(=O)Nc2ccc(-c3noc(-c4ccc(F)cc4)n3)cc2)cc1", 4),
    ("COc1nc(C)ccc1-c1noc(-c2ccc(F)cc2)n1", 4),
    ("CCOc1nc(C)ccc1-c1noc(-c2cccc(C)c2)n1", 4),
    ("Cc1cccc(-c2noc(-c3ccccc3F)n2)c1", 4),
    ("Cc1ccccc1CSc1nnc(-c2ccco2)o1", 0),
    ("Ic1ccccc1-c1nc(-c2cccnc2)no1", 3.5),
    ("CCN(CC)C(=O)CSc1nnc(-c2ccc(Br)cc2)o1", 4),
    ("O=C(Nc1ccc(-c2noc(COc3ccccc3Cl)n2)cc1)c1ccccn1", 4),
    ("Cc1cc(Br)ccc1OCc1nc(-c2ccncc2)no1", 4),
    ("CCSc1nnc(-c2ccc(Cl)cc2)o1", 0),
    ("COc1ccc(-c2noc(C3CCCCC3)n2)cc1", 4),
    ("CCOc1ccccc1-c1nnc(SCC(=O)Nc2nc(C)cs2)o1", 4),
    ("Cc1ccc(OCc2nc(-c3ccccn3)no2)cc1C", 4),
    ("COc1cccc(-c2noc(COc3cccc(C)c3C)n2)c1", 2),
    ("Cc1cc(OCc2nc(-c3cccnc3)no2)c(C)c(C)c1Br", 4),
    ("Cc1ccccc1-c1noc(-c2ccccc2C(=O)NCc2ccccc2)n1", 4),
    ("CCOc1ccccc1-c1nc(-c2ccc(NC(=O)Cc3ccccc3OC)cc2)no1", 4),
    ("CCCCC(=O)Nc1ccccc1-c1nc(-c2ccccn2)no1", 4),
    ("O=C(Nc1ccccc1-c1nc(-c2cccnc2)no1)c1cccs1", 4),
    ("Clc1cccc(OCc2nc(-c3cccs3)no2)c1", 0),
    ("CC(C)(C)C(=O)CSc1nnc(-c2ccc(Cl)cc2Cl)o1", 4),
    ("COc1ccccc1-c1nnc(SCC(=O)Nc2ccc(Br)cn2)o1", 4),
    ("CCn1cc(C(=O)CSc2nnc(-c3ccccc3)o2)c2ccccc21", 4),
    ("c1ccc(-c2nnc(SCc3nc4ccccc4[nH]3)o2)cc1", 4),
    ("Cc1cccc(-c2noc(-c3ccc4c(c3)OCO4)n2)c1", 4),
    ("COc1ccccc1-c1nnc(SCC(=O)Nc2nc(C)cs2)o1", 4),
    ("COc1ccc(-c2noc(-c3ccc(C)cc3)n2)cc1", 3),
    ("Clc1ccc(OCc2nc(-c3ccccc3)no2)c(Br)c1", 1),
    ("Cn1c(SCc2nc(-c3cccs3)no2)nnc1-c1ccco1", 4),
    ("Cc1cc(C)cc(OCc2nc(-c3ccccc3Cl)no2)c1", 4),
    ("Clc1ccc(-c2noc(-c3ccc4c(c3)OCCO4)n2)cc1", 4),
    ("c1cc(-c2noc(C34CC5CC(CC(C5)C3)C4)n2)ccn1", 4),
    ("Cc1ccc(-c2nc(-c3ccc(F)cc3)no2)cc1", 0),
    ("Clc1ccccc1-c1noc(-c2ccccc2Cl)n1", 2),
    ("c1csc(-c2nnc(-c3cccs3)o2)c1", 2),
    ("Cc1cccc(OC(C)c2nc(-c3ccncc3)no2)c1 (stereo not given)", 4),
]

* * *

# Tested on: Caenorhabditis elegans L1 (N2)
# Protocol: survival and reproduction score of C. elegans L1 (0: 0-10 living worms, 1: 11-20, 2: 21-50, 3: >50, 4: overgrown) (score 0-4); higher = more worms, less nematicidal, active = 1 or less; extreme values may be limits of the assay
# Reported conditions: 60 µM; 6 days; temperature: 20 °C
Possible outcomes: active, inactive

# Molecule, Label
records = [
    ("Clc1ccccc1OCc1nc(-c2cccs2)no1", "inactive"),
    ("O=C(Nc1cccc(-c2noc(COc3ccccc3)n2)c1)c1cccs1", "inactive"),
    ("Brc1ccc(-c2nnc(SCc3ccccc3)o2)cc1", "inactive"),
    ("Cc1cccc(-c2noc(COc3ccc(C)cc3C)n2)c1", "inactive"),
    ("COc1ccc(-c2noc(COc3ccc(F)cc3)n2)cc1", "inactive"),
    ("O=C(CSc1nnc(-c2ccccc2)o1)NC1CC2CCC1C2 (stereo not drawn)", "inactive"),
    ("COc1cccc(-c2noc(COc3ccc4ccccc4c3)n2)c1", "inactive"),
    ("CCn1c(SCc2nnc(-c3ccccc3)o2)nnc1-c1ccco1", "inactive"),
    ("Fc1ccc(-c2nc(-c3ccc4c(c3)OCO4)no2)cc1", "inactive"),
    ("Brc1ccc(-c2noc(COc3ccc4c(c3)OCO4)n2)cc1", "inactive"),
    ("COc1ccc(-c2nnc(SCC(=O)Nc3ccc(Br)cc3C)o2)cc1", "inactive"),
    ("O=C(CSc1nnc(-c2ccc(Cl)cc2)o1)NC1CC2CCC1C2 (stereo not drawn)", "inactive"),
    ("c1ccc(-c2nc(C3CCCCC3)no2)cc1", "active"),
]
